Here's a batch of compounds along with measured MIC for Escherichia coli UB1005.
State the answer as a number, implicitly in µM.

Report MIC on Escherichia coli UB1005 for this entry: CC[C@H](C)[C@H](NC(=O)[C@H](CCCN=C(N)N)NC(=O)[C@H](C)NC(=O)[C@H](C)N)C(=O)N[C@H](C(=O)N[C@@H](CC(C)C)C(=O)N[C@@H](CCCN=C(N)N)C(=O)N[C@@H](CCCN=C(N)N)C(=O)N[C@@H](CCCN=C(N)N)C(=O)N[C@@H](Cc1ccccc1)C(=O)N[C@@H](CCCN=C(N)N)C(N)=O)[C@@H](C)CC
16

Recall the reported MIC of CC[C@H](C)[C@H](NC(=O)[C@H](CCCCN)NC(=O)[C@H](CCCCN)NC(=O)[C@H](CC(C)C)NC(=O)[C@H](CCCN=C(N)N)NC(=O)[C@H](CCCCN)NC(=O)[C@H](CCCN=C(N)N)NC(=O)[C@@H](NC(=O)[C@H](Cc1c[nH]c2ccccc12)NC(=O)[C@H](Cc1c[nH]c2ccccc12)NC(=O)[C@H](CCCN=C(N)N)NC(=O)[C@H](CC(C)C)NC(=O)[C@H](CCCN=C(N)N)NC(=O)[C@H](CCCN=C(N)N)NC(=O)[C@H](Cc1ccccc1)NC(=O)[C@@H](N)CCCN=C(N)N)[C@@H](C)O)C(N)=O when tested on Escherichia coli UB1005.
8

---
Write down measured MIC (Escherichia coli UB1005) for this compound. NCCCC[C@H](NC(=O)[C@H](Cc1c[nH]c2ccccc12)NC(=O)[C@H](CCCN=C(N)N)NC(=O)[C@H](CCCN=C(N)N)NC(=O)[C@H](Cc1c[nH]c2ccccc12)NC(=O)[C@H](CCC(N)=O)NC(=O)[C@H](Cc1c[nH]c2ccccc12)NC(=O)[C@H](CCCN=C(N)N)NC(=O)[C@H](CCCN=C(N)N)NC(=O)[C@H](Cc1c[nH]c2ccccc12)NC(=O)[C@@H](N)CCCCN)C(N)=O
8

###

Form: system (Escherichia coli ATCC 25922), quantity (MIC), values below.
Please answer using a numeric value trailed by its unit.

These recorded examples may help you get a feel for the data.
State its MIC for this compound: CC[C@H](C)[C@H](NC(=O)[C@H](C)NC(=O)CNC(=O)[C@H](C)NC(=O)[C@H](CCCCN)NC(=O)[C@H](CO)NC(=O)[C@H](C)NC(=O)[C@H](CCSC)NC(=O)CN)C(=O)N[C@@H](C)C(=O)NCC(=O)N[C@@H](CCCCN)C(=O)N[C@H](C(=O)N[C@@H](C)C(=O)N[C@@H](CCCCN)C(=O)N[C@H](C(=O)N[C@@H](C)C(=O)N[C@@H](CC(C)C)C(=O)N[C@@H](CCCCN)C(=O)N[C@@H](C)C(=O)N[C@@H](CC(C)C)C(=O)O)C(C)C)[C@@H](C)CC
0.0305 µM

For the compound CC[C@H](C)[C@H](NC(=O)[C@@H](N)CO)C(=O)N[C@@H](CO)C(=O)N[C@@H](CC(C)C)C(=O)N[C@@H](CC(C)C)C(=O)N[C@@H](Cc1ccc(O)cc1)C(=O)NCC(=O)N[C@@H](CCCN=C(N)N)C(=O)N[C@@H](CCCCN)C(=O)N[C@@H](CCCCN)C(=O)N[C@@H](CCCN=C(N)N)C(=O)N[C@@H](CCCN=C(N)N)C(=O)N[C@@H](CCC(N)=O)C(=O)N[C@@H](CCCN=C(N)N)C(=O)N[C@@H](CCCN=C(N)N)C(=O)N[C@@H](CCCN=C(N)N)C(=O)O , give its measured MIC value.
10.3 µM

Return value of MIC for input CC[C@H](C)[C@H](NC(=O)[C@H](CCCCN)NC(=O)[C@H](CCCCN)NC(=O)[C@H](CC(C)C)NC(=O)[C@H](CC(C)C)NC(=O)[C@H](CCCCN)NC(=O)[C@H](CCCCN)NC(=O)[C@@H](NC(=O)[C@@H](NC(=O)[C@H](CC(=O)O)NC(=O)[C@H](Cc1ccccc1)NC(=O)[C@H](CC(C)C)NC(=O)CN)C(C)C)[C@@H](C)CC)C(=O)NCC(=O)NCC(=O)N[C@@H](CC(C)C)C(N)=O , no commentary.
6.3 µM

State its MIC for this compound: CC[C@H](C)[C@H](NC(=O)[C@H](CCCN=C(N)N)NC(=O)[C@H](CCCCN)NC(=O)[C@@H](N)Cc1ccccc1)C(=O)N[C@H](C(=O)N[C@@H](CCC(N)=O)C(=O)N[C@@H](CCCN=C(N)N)C(=O)N[C@@H](C)C(=O)N[C@@H](CCCCN)C(=O)N[C@@H](CC(=O)O)C(=O)N[C@@H](Cc1ccccc1)C(=O)N[C@@H](CC(C)C)C(=O)N[C@@H](CCCN=C(N)N)C(=O)O)C(C)C
10 µM

Let's switch to this compound now.
Provide MIC value for the following compound: CC[C@H](C)[C@H](N)C(=O)N[C@@H](CC(N)=O)C(=O)N[C@@H](CCSC)C(=O)N[C@@H](CCCCN)C(=O)N[C@@H](C)C(=O)N[C@@H](CO)C(=O)N[C@@H](C)C(=O)N[C@@H](C)C(=O)N[C@H](C(=O)N[C@@H](C)C(=O)N[C@@H](CCCCN)C(=O)N[C@@H](CCCCN)C(=O)N[C@@H](CC(C)C)C(=O)N[C@@H](CC(C)C)C(=O)O)C(C)C
10.3 µM
